- targetOfAssay: HIV-1 Env of isolate MGRM-F1-010 (subtype F) (HIV-1)
- assayRemarks: cell-based or functional assay
parameterMeasured: IC50 (neutralization)

{"columns": ["binder", "parameterMeasured", "result"],
 "data": [
  ["PGT-136 (antibody, V domains shown) VH: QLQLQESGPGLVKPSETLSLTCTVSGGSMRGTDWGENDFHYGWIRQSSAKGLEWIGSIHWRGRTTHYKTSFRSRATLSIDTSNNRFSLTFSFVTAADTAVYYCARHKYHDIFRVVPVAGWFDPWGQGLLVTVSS VL: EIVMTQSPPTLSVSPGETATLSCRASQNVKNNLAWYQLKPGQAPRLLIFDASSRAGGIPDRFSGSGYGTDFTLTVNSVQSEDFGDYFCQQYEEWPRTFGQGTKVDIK", "IC50 (neutralization)", "> 50 µg/mL"],
  ["PGT-131 (antibody, V domains shown) VH: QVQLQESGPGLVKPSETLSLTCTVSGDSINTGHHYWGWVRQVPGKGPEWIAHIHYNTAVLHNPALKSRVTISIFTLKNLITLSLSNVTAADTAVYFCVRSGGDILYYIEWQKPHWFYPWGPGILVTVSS VL: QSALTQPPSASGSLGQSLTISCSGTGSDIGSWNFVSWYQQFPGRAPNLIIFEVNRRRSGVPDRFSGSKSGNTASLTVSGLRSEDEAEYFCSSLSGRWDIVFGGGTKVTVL", "IC50 (neutralization)", "> 50 µg/mL"],
  ["PGT-135 (antibody, V domains shown) VH: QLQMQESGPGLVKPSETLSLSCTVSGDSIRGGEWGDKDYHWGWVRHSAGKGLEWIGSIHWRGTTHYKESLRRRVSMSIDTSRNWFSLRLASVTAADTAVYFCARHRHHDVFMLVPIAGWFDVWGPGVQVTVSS VL: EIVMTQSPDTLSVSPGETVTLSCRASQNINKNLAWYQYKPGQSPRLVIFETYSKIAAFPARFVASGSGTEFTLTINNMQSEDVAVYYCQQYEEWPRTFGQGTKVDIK", "IC50 (neutralization)", "> 50 µg/mL"]
]}
